src = the supplement of paper PMC7125110

B1: glmS ribozyme (parent)
chain: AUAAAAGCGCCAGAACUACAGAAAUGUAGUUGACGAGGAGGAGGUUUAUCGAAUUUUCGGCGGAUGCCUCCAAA

Variants of: B1
Method: self-cleavage kobs at 640 uM GlcN6P; higher = faster cleavage; RNA array
Protocol conditions: with glucosamine-6-phosphate
This sample holds only a part of the variants without activity.
self-cleavage kobs at 640 uM GlcN6P: recorded values
Measured metric: self-cleavage kobs at 640 uM GlcN6P

>>> result("AUAAAAGCGCCAGAACUACAGAAAUGUAGUUGGCGAGGAGGAGGUUUAUCGAAUUUACGGCGGAUGCCUCCAAA [A33G U57A]")
"< 1e-05 s⁻¹"
>>> result("AUAAAAGCGACAGAACUACAGAAAUGUAGUGGACGAGGAGGUGGUUUAUCGAAUUUUCGGCGGAUGCCUCCAAA [C10A U31G A42U]")
"< 1e-05 s⁻¹"
>>> result("AUAAAAGCGCCAGAACUACAGAAAUGUAGUUGACGAGGAGGACGUUUAUCGAAUUUACGGCGGAUGCCUCCAAA [G43C U57A]")
"< 1e-05 s⁻¹"
>>> result("AUAAAAACGCCAGAUCUACAGAAAUGUAGUUGACGAGGAGGAGGUUUAUCGAAUUUUAGGCGGAUGCCUCCAAA [G7A A15U C58A]")
"< 1e-05 s⁻¹"
>>> result("AUAAAAGCGCCAGAACUACAGAAAUGUAGUUGACGAGAAGGAGUUUUAUCGAAUUUUAGGCGGAUGCCUCCAAA [G38A G44U C58A]")
"< 1e-05 s⁻¹"
>>> result("AUAAAAGCGCCAGAACUACAGAAAUGUAGUUGACGACGAGGAGGUUUAUCGAAUUUUCGGCCCAUGUCUCCAAA [G37C G62C G63C C67U]")
"< 1e-05 s⁻¹"
>>> result("AUAAAAGCGCCAGAACUACAGAAAUGUAGUUGCCGAGGACGAGGUUUAUCGAAUUUUCGGCGGAUGCCUCCAAA [A33C G40C]")
"< 1e-05 s⁻¹"
>>> result("AUAAAAGCGCCAGAGCUACAGAAAUGUAGUUGACGAGGAUGAGGUUUAUGGAAUUUUCGCCGGAUGCCUCCAAA [A15G G40U C50G G60C]")
"< 1e-05 s⁻¹"
>>> result("AUAAAAGCGCCAGAACUACAGAAAUGUAGUUGAGGAGGAGGAGGUUUAUCGAAGUUUCGGCGGAUGCCUCCAAA [C34G U54G]")
"< 1e-05 s⁻¹"
>>> result("AUAAAAGCGCCAGAACUACAGAAAUGUAGUUGACGAGGAGGAGGUUUAUCGCAUUUUCGGCCGAUGCCUCCAAA [A52C G62C]")
"< 1e-05 s⁻¹"
>>> result("AUAAAAGCGCCAGAACUACAGAAAUGUAGUUGACGAGGAGGAGGUUUAUCGAAUGUUCGGCGUAGGCCUCCAAA [U55G G63U U65G]")
"< 1e-05 s⁻¹"
>>> result("AUAAAAGCGCCAGAACUACAGAAAUGUAGUUGACGAGGAGGAGGUUUAUCGAAUUUUGGUCGGAUGCCUCCAAA [C58G G60U]")
"< 1e-05 s⁻¹"
>>> result("AUAAAAGCGCCAGAACUACAGAAAUGUAGUUUACGAGGAGUAGGUUUAUCGGAUUUUCGACGGAUGCCUCCAAA [G32U G41U A52G G60A]")
"< 1e-05 s⁻¹"
>>> result("AUAAAAGCGCCAGAACUACAGAAAUGUAGUUGACGAGGAGGCGGUUUAUCGAAUUUUCGGCGGGUGCCUCCAAA [A42C A64G]")
"< 1e-05 s⁻¹"
>>> result("AUAAAAUCGCCAGAAUUACAGAAAUGUAGGUGACGAGGAGGAGGUUUAUCGAAUUUUCGGCGGAUGCCUCCAAA [G7U C16U U30G]")
"< 1e-05 s⁻¹"
>>> result("AUAAAAGCGCCAGAACUACAGAAAUGUAGUAGACGUGGAGGAGGUUUAUCGAAUUUUCGGCGGAUGCCUCCAAA [U31A A36U]")
"< 1e-05 s⁻¹"
>>> result("AUAAAAGCGCUAUGACUACAGAAAUGUAGUUGACGAGCAGGAGGUUUAUCGAAUUUUCGGCGGAUGCCUCCAAA [C11U G13U A14G G38C]")
"< 1e-05 s⁻¹"
>>> result("AUAAAAUCGCCAGAACUACAGAAAUGUAGUUGACGAGGGGGAGGUUCAUCGAAUUUUCCGCGGAUGCCUCCAAA [G7U A39G U47C G59C]")
"< 1e-05 s⁻¹"
>>> result("AUAAAAGCGCCAGAACUACAGAAAUGUAGUUGACGAGGAGGAGGUUUGUCGCAUCUUCGGCGGAUGCCUCCAAA [A48G A52C U55C]")
"< 1e-05 s⁻¹"
>>> result("AUAAAAGCGCCAGAACUACAGAAAUGUAGUUAACGAGGAGGAGGUUUAUCGAAUUUUCGACGGAUGCCUCCAAA [G32A G60A]")
"< 1e-05 s⁻¹"
>>> result("AUAAAAGCGCGAUAACUACAGAAAUGUAGUUGACGAGGAGGAGGUUUAUCGAAUUUUCGGCGGAUGCCUCCAAA [C11G G13U]")
"< 1e-05 s⁻¹"
>>> result("AUAAAAGCGCCAGAACUACAGAAAUGUAGUUGACGCGGAGGAGUUUUAUCGAAUUUUCGGUGGAUGUCUCCAAA [A36C G44U C61U C67U]")
"< 1e-05 s⁻¹"
>>> result("AUAAAAGCGUCAGAACUACAGAAAUGUAGUUGACGAGGAUGAGGUUUUUCGAAUUUUCGGCGGAUGCCUCCAAA [C10U G40U A48U]")
"< 1e-05 s⁻¹"
>>> result("AUAAAAGCGCCAGAACUACAGAAAUGUAGAUGACGAGGUGGAGGUUUAUCGAAUUUUCGGCGUAUGCCUCCAAA [U30A A39U G63U]")
"< 1e-05 s⁻¹"
>>> result("AUAAAAGCGCCAGAUCUACAGAAAUGUAGUUGUCGAGGAGGAGGUUUAUCGAAUUUUCGGCGGAUGCCUUCAAA [A15U A33U C70U]")
"< 1e-05 s⁻¹"
>>> result("AUAAAAGCGCCACAACUACAGAAAUGUAGUUGACGAGGAGGAUGUUUAUCGAAUUUUCGGCGGAUGCCUCCAAA [G13C G43U]")
"< 1e-05 s⁻¹"
>>> result("AUAAAGGCGCCAGAUGUACAGAAAUGUAGUUGACGAGGAGGAGGUUUAUCGAGUUUUCGGGGAAUGCCUCCAAA [A6G A15U C16G A53G C61G G63A]")
"< 1e-05 s⁻¹"
>>> result("AUAAAAGCGCCAGAACUACAGAAAUGUAGAUGACGAGGAUGAGGUUUAUCGAAUUUUCGGCGAGUGCCUCCAAA [U30A G40U G63A A64G]")
"< 1e-05 s⁻¹"
>>> result("AUAAAAGCGCCAGAACUACAGAAAUGUAGUUGAAGAGGAGGAGGUUUAUCGAAUUUUCGGCGGAUGCUUCCAAA [C34A C68U]")
"< 1e-05 s⁻¹"
